Here, each record is paired with measured IC50 data.
target: Syk (356-635 amino acids) catalytic domain (Homo sapiens (Human)); experiment: Inhibition of enzymatic Syk kinase activity (radiometric); type: biochemical; conditions: read-out: IC50 Syk

Take a look at these entries with their results.
{"testSmiles": "N#CCC1CCN(CCN2CCC(Nc3nc(N4CCCCCC4)nc4cn[nH]c(=O)c34)CC2)CC1", "IC50": "> 100 nM"}
{"testSmiles": "N#CCC1CCN(c2nc(Nc3ccc(N4CCC(CC(=O)O)CC4)cc3)c3c(=O)[nH]ncc3n2)CC1", "IC50": "> 100 nM"}
{"testSmiles": "N#CC1CCN(c2nc(Nc3ccc(N4CCC(CC(=O)O)CC4)cc3)c3c(=O)[nH]ncc3n2)CC1", "IC50": "< 100 nM"}

// IC50 lookup, molecule = N#CCC1CCN(c2ccc(Nc3nc(N4CCC(CC#N)CC4)nc4cn[nH]c(=O)c34)cn2)CC1 , result: < 10 nM

---

Biological target: JAK2 (Homo sapiens (Human))
Sequence (O60674 808-1132): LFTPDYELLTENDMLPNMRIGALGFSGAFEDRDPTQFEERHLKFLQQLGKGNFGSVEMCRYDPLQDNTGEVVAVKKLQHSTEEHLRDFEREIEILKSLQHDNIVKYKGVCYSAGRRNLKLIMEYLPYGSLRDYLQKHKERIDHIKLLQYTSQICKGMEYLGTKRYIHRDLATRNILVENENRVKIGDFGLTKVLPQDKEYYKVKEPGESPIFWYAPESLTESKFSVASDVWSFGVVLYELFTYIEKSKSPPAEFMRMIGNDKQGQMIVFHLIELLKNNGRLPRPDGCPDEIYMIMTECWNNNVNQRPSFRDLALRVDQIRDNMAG
Assay: Inhibition of enzymatic JAK2 kinase activity (TR-FRET)
Type: biochemical
From the text: The objective of this assay was to screen compounds in a Time-resolved fluorescence resonance energy transfer (TR-FRET) Enzymatic assay method for their potential to inhibit JAK2 (Janus kinase) activity. TR-FRET assays are homogeneous proximity assays where Eu-labeled antiphosphotyrosine antibody binds to the phosphorylated substrates labeled with Ulight fluorescence acceptor. […]
pIC50: −log10 of the molar value.
parameterMeasured: pIC50

// pIC50 lookup, compound = O=C(OCOP(=O)(O)O)C1CC12CCN(c1ccc(Nc3nc(N4CCCCCC4)nc4cn[nH]c(=O)c34)cc1)CC2 (stereo not shown) , result: > 8.00

---

target: Syk (356-635 amino acids) catalytic domain (Homo sapiens (Human)); experiment: Inhibition of enzymatic Syk kinase activity (radiometric); type: biochemical; settings: read-out: IC50 Syk
pIC50: −log10 of the molar value. Where a name gives a salt, the structure may show the parent alone.
Here, each record is paired with measured pIC50 data.

Take a look at these entries with their results.
{"compound": "CC(C)(O)C(=O)N1CCN(c2ccc(Nc3nc(N4CCCCCC4)nc4cn[nH]c(=O)c34)cc2)CC1", "pIC50": "> 8.00"}
{"compound": "O=C(O)c1ccc(-c2nc(Nc3ccc(CN4CCNCC4)cc3)c3c(=O)[nH]ncc3n2)cc1 [Example 27, hydrochloride]", "pIC50": "< 7.00"}
{"compound": "COc1cccc(-c2nc(Nc3ccc(CN4CCNCC4)cc3)c3c(=O)[nH]ncc3n2)c1 [Example 31, hydrochloride]", "pIC50": "> 7.30"}

Given the compound CN(C)CCN(C)C(=O)c1ccc(Nc2nc(-c3ccccc3)nc3cn[nH]c(=O)c23)cc1 and test system Syk (356-635 amino acids) catalytic domain (Homo sapiens (Human)), the measured pIC50 is < 7.00

Given the compound N#CCC(=O)N1CCN(c2ccc(Nc3nc(N4CCCCCC4)nc4cn[nH]c(=O)c34)cn2)CC1 and test system Syk (356-635 amino acids) catalytic domain (Homo sapiens (Human)), the measured pIC50 is > 7.30

Given the compound O=c1[nH]ncc2nc(N3CCCCCC3)nc(Nc3ccc(OCCN4CCNCC4)nc3)c12 and test system Syk (356-635 amino acids) catalytic domain (Homo sapiens (Human)), the measured pIC50 is > 7.00

Given the compound N#CCC1CCN(c2nc(Nc3ccc(N4CCN(CCN)CC4)cc3)c3c(=O)[nH]ncc3n2)CC1 and test system Syk (356-635 amino acids) catalytic domain (Homo sapiens (Human)), the measured pIC50 is > 8.00
